FYI, the data here is from patent US20240132464A1.

Target: GID4 (Uniprot ID: Q81VV7, residues 124-289) (Homo sapiens, UniProt Q8IVV7)
Construct: GID4 (Uniprot ID: Q81VV7, residues 124-289)
Assay: GID4 competitive binding assay (AlphaScreen, GID4/degron peptide PGLW)
Details: 24 nM GID4, 48 nM biotinylated degron peptide PGLW, 4° C., read-out: IC50 (Inhibition of GID4/Degron binding by test compounds)
pIC50: −log10 of the molar value.
Measurement name: pIC50

Solved entries (count: 3):
[[record]]
molecule = "CC(C)c1cc(N2CCCC(c3cnc4ccncn34)C2)nc(N)n1 (stereo not shown) [Compound 239]"
val = "5.30 to 6.30"

[[record]]
molecule = "Nc1nc(N2CCN[C@@H](c3ccccc3Br)C2)c2cc[nH]c2n1 (racemic) [Compound 57]"
val = "5.30 to 6.30"

[[record]]
molecule = "Nc1cc(N2CCO[C@](CO)(c3ccccc3Br)C2)nc(N)n1 (stereo in doubt) [Compound 36]"
val = "< 5.30"


Memo: CC(C)c1cc(N2CCCC(O)(c3ccccc3Br)C2)nc(N)n1 (stereo not shown) [Compound 236] , reported pIC50: 5.30 to 6.30

###

Property: pIC50; scope: individual molecules
Target: GID4 (Uniprot ID: Q81VV7, residues 124-289) (Homo sapiens, UniProt Q8IVV7)
Sequence (Q8IVV7 124-289): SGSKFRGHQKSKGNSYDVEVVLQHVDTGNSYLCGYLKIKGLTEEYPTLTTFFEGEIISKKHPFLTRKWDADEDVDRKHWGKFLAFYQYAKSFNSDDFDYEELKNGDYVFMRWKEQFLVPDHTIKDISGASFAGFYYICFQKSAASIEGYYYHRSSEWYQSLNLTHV
pIC50: −log10 of the molar value.

Solved entries:
[[record]]
molecule = "CN(C)CCNC(=O)c1csc(-c2cc(O)c3ncccc3c2)c1"
val = "> 6.30"

[[record]]
molecule = "CC(C)c1cc(N2CCNC(c3cc(O)ccc3Br)C2)nc(N)n1 (centres unmarked)"
val = "> 6.30"

[[record]]
molecule = "CC(C)c1cc(N2CCOC(c3cnc4ccccn34)C2)nc(N)n1 (single isomer, unassigned)"
val = "< 5.30"

[[record]]
molecule = "CCc1cc(N2CCNC(c3cnc4ccccn34)C2)nc(N)n1 (single isomer, unassigned)"
val = "> 6.30"

[[record]]
molecule = "Nc1nc(NC2CC2)cc(N2CCN(CCO)[C@@H](c3ccccc3Br)C2)n1 (racemic)"
val = "> 6.30"


GET /value?item= CC(C)c1cc(N2CCNC(c3cc(N4CC(CO)C4)ccc3Br)C2)nc(N)n1 (single isomer, unassigned) [Compound 31] &field=pIC50 returns 5.30 to 6.30

// sample "CN(C)CCNC(=O)c1c[nH]c2ncc(-c3ccc4ccnc(N)c4c3)cc12" , its pIC50 was < 5.30

Recorded result, CN1CCN(c2cc(NC3CC3)nc(N)n2)CC1c1ccccc1Br (centres unmarked) , pIC50: > 6.30

###

System: GID4 (Uniprot ID: Q81VV7, residues 124-289) (Homo sapiens, UniProt Q8IVV7) | Read-out: IC50

[[record]]
compound = "CC(C)c1nc(N)cc(N2CCN(C)C(c3ccccc3Br)C2)n1 (centres unmarked)"
val = "0.5 to 5 µM"


// assay GID4 (Uniprot ID: Q81VV7, residues 124-289) (Homo sapiens, UniProt Q8IVV7), entry "CC(C)c1cc(N2CC[C@@H](F)[C@@H](c3ccccc3Br)C2)nc(N)n1" , IC50 value = < 0.5 µM

Tested on GID4 (Uniprot ID: Q81VV7, residues 124-289) (Homo sapiens, UniProt Q8IVV7): "CN(C)CCCNC(=O)c1cccc(-c2ccc3ccnc(N)c3n2)c1" . Observed IC50: > 5 µM

GID4 (Uniprot ID: Q81VV7, residues 124-289) (Homo sapiens, UniProt Q8IVV7) IC50 of CNc1cc(N2CCCC(n3nnc4ccccc43)C2)nc(N)n1 (centres unmarked) is > 5 µM

For CC1CNCCN1c1cc(-c2ccnn2C)c2ccnc(-c3ccn[nH]3)c2n1 (centres unmarked) on GID4 (Uniprot ID: Q81VV7, residues 124-289) (Homo sapiens, UniProt Q8IVV7), measured IC50 was > 5 µM

IC50 on GID4 (Uniprot ID: Q81VV7, residues 124-289) (Homo sapiens, UniProt Q8IVV7) for "CN(C)CCCNC(=O)c1ccc(-c2cc(O)c3nccc(N)c3c2)cc1" is 0.5 to 5 µM

Reported IC50 (GID4 (Uniprot ID: Q81VV7, residues 124-289) (Homo sapiens, UniProt Q8IVV7)) for entry CC(C)c1cc(N2Cc3ccnn3C(c3ccccc3Br)C2)nc(N)n1 (centres unmarked) is 0.5 to 5 µM

Simply: "CN(C)CCNC(=O)c1ccc(-c2cc(O)c3ncnc(N)c3c2)cc1" , GID4 (Uniprot ID: Q81VV7, residues 124-289) (Homo sapiens, UniProt Q8IVV7), IC50 = < 0.5 µM

The measured IC50 that CNc1cc(N2CCCC(c3cnc4ccccn34)C2)nc(NC)n1 (racemic) [Compound 124] showed for GID4 (Uniprot ID: Q81VV7, residues 124-289) (Homo sapiens, UniProt Q8IVV7) is 0.5 to 5 µM

The compound Nc1nc(N2CCOC(c3ccccc3Br)C2)c2cc[nH]c2n1 (single isomer, unassigned) , when measured on GID4 (Uniprot ID: Q81VV7, residues 124-289) (Homo sapiens, UniProt Q8IVV7), yielded IC50 of > 5 µM

Known value: GID4 (Uniprot ID: Q81VV7, residues 124-289) (Homo sapiens, UniProt Q8IVV7) IC50 of the compound "COC1CCN(C(=O)c2cccc(-c3ccc4ccnc(N)c4c3)c2)CC1" equals 0.5 to 5 µM

Summary: "CN(C)CCNCc1n[nH]c2ccc(-c3ccc4ccnc(N)c4c3)cc12" , GID4 (Uniprot ID: Q81VV7, residues 124-289) (Homo sapiens, UniProt Q8IVV7), IC50 = < 0.5 µM

Test item Nc1nc2c(c(N3CCCC(c4ccn[nH]4)C3)n1)CSC2 (centres unmarked) ; GID4 (Uniprot ID: Q81VV7, residues 124-289) (Homo sapiens, UniProt Q8IVV7); reported IC50 was > 5 µM

Query CN1CCN(c2cc(N)nc(NC3CC3)n2)CC1c1ccccc1Br (centres unmarked) on GID4 (Uniprot ID: Q81VV7, residues 124-289) (Homo sapiens, UniProt Q8IVV7); IC50 returned: < 0.5 µM

###

Target: GID4 (Uniprot ID: Q81VV7, residues 124-289) (Homo sapiens, UniProt Q8IVV7)
Sequence (Q8IVV7 124-289): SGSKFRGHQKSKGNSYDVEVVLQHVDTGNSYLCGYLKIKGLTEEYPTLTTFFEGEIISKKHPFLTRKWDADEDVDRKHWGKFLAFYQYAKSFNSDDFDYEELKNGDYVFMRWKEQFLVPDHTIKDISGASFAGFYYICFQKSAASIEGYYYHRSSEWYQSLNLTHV
pIC50: −log10 of the molar value.
Recorded measurements of pIC50, one per entry

Below are worked cases with known answers.
[[record]]
compound = "Nc1nc(N2CCCC(c3ccn[nH]3)C2)c2cnccc2n1 (stereo not drawn)"
measurement_name = "pIC50"
val = "< 5.30"

[[record]]
compound = "Nc1nc(NC2CC2)cc(N2CCCC(c3cnc4ccccn34)C2)n1 (stereo not drawn)"
measurement_name = "pIC50"
val = "5.30 to 6.30"

[[record]]
compound = "CC(C)c1nc(N)cc(N2CCCC(c3cnc4ccccn34)C2)n1 (single isomer, unassigned)"
measurement_name = "pIC50"
val = "> 6.30"


Measured pIC50 of Cn1nccc1C1CCCN(c2nc(N)nc3c2CCC3)C1 (stereo not drawn) : < 5.30

Record summary for "Cn1cc(CNC(=O)c2n[nH]c3ccc(-c4ccc5ccnc(N)c5c4)cc23)cn1" : reported pIC50 = > 6.30

Reported pIC50 ( "Cn1nccc1-c1cc(N2CC3CCC(C2)N3)nc2c(-c3cc[nH]n3)nccc12" ) = < 5.30

GET /value?item= "CN(C)CCCNC(=O)c1ccc(-c2cc(O)c3ncc(=O)[nH]c3c2)cc1" &field=pIC50 returns 5.30 to 6.30

Entry CC(C)c1cc(N2CCCC(c3cnn4ccccc34)C2)nc(N)n1 (stereo not drawn) , pIC50 reported as > 6.30

The recorded pIC50 for "CN(C)CCCNC(=O)c1csc(-c2cc(O)c3ncccc3c2)c1" is > 6.30

The measured pIC50 associated with c1ccn2c(C3CCCN(c4ncnc5c4CCCN5)C3)cnc2c1 (stereo not drawn) reads 5.30 to 6.30

// recorded pIC50 for Cc1cc(N2CCCC(c3ccn[nH]3)C2)nc(N)n1 (stereo not drawn) : < 5.30

The recorded pIC50 for entry Nc1cc(N2CCN(CCO)[C@H](c3ccccc3Br)C2)nc(NC2CC2)n1 (stereo in doubt) equals 5.30 to 6.30
